Test: BSK_MyoF_SRB: Viability Assessment in the BioMAP Diversity Plus: MyoF Assay (AID 2284267);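 also: total protein by SRB absorbance in parallel cultures as cytotoxicity measure; cells assessed 24 h after compound addition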
Conditions: primary human lung fibroblasts
Method: BSK_MyoF is a cell-based, multiplexed-readout assay that uses lung fibroblasts, […], with measurements taken at 24 hours after chemical dosing in a microplate: 96-well plate.BSK_MyoF_SRB is an assay component measured in the BSK_MyoF assay. […] The levels of cell surface (or secreted, indicated by the prefix "s") biomarker endpoints were measured by ELISA. […] Plates were read after 6 h.
Activity calls are given as the source filed them. The calls were made as follows: active = hit-call score of the fitted dose curve at least 0.9, where 1 is the maximum; inactive = score below 0.9.
Permitted responses: 1.0 for active, 0.0 for inactive

{"columns": ["compound", "labelClass"],
 "data": [
  ["NC(=S)Nc1ccccc1", 0.0],
  ["CC(C)CCCCCCOC(=O)c1ccccc1C(=O)OCCCCCCC(C)C", 0.0],
  ["CC1(C)Cc2cccc(O)c2O1", 0.0]
]}

[ask] Hi, do you know how O=Cc1cccc(Oc2ccccc2)c1 came out in this test?
[reply] 0.0

[ask] // next record COP(=S)(OC)Oc1c(Cl)cc(C)cc1Cl
[reply] 0.0

[ask] // next record COC(=O)c1sccc1S(=O)(=O)NC(=O)Nc1nc(C)nc(OC)n1
[reply] 0.0

----------
assay: APR_HepG2_CellLoss_24hr: Apredica 24-hour HepG2 Assay for Cell Loss (AID 2282908); conditions: high-content imaging;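 as to AC50: fit in both directions so a hit may be cell loss or gain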
The source made the active and inactive calls. The calls were made as follows: active = hit-call score of the fitted dose curve at least 0.9, where 1 is the maximum; inactive = score below 0.9.
measuredQuantity: AC50

# annotated cases, reported AC50 shown
{"columns": ["compound", "result"],
 "data": [
  ["O=C(O)C(F)(F)C(F)(F)C(F)(F)C(F)(F)C(F)(F)C(F)(F)F", "inactive"],
  ["CN(C)N=O", "inactive"],
  ["CCC(C)(C)c1ccc(O)c(C(C)(C)CC)c1", "40.5 µM (active)"],
  ["Oc1cccc2cccnc12", "2.29 µM (active)"],
  ["CCC(=O)C(CC(C)N(C)C)(c1ccccc1)c1ccccc1 (configuration not stated)", "inactive"],
  ["O=c1[nH]c(=O)[nH]c(=O)[nH]1", "inactive"]
]}

[ask] Name the recorded AC50 for C=CC(=O)OCCCCCC(C)C .
[reply] inactive

----------
Experiment: CPHEA_Stoker_NIS_Cytotoxicity: Cytotoxicity Assessment for CPHEA's Radioactive Iodide Uptake (RAIU) Assay for Sodium/Iodide Symporter (NIS) Inhibition, Stoker and Laws Labs (AID 2283897)
Experimental: CPHEA_Stoker_NIS is a cell-based, single-readout assay that uses hNIS-HEK293T-EPA, a novel human kidney cell line expressing human NIS, with measurements taken at 2 hours after chemical dosing in a 96-well plate. […] A parallel cytoxicity assay (Cell Titer Glo, Promega) was also run in the same cell line.CPHEA_Stoker_NIS_Cytotoxicity is one of 2 assay components measured from the CPHEA_Stoker_NIS assay. […]
Calls of active or inactive are those of the source. Rule for the calls: active = hit-call score of the fitted dose curve at least 0.9, where 1 is the maximum; inconclusive = response in the unintended direction; inactive = score below 0.9.
Permitted responses: Y (active), N (inactive)

Please review the entries below; each comes with its answer.
{"columns": ["compound", "labelClass"],
 "data": [
  ["CCOP(=S)(OCC)SCSP(=S)(OCC)OCC", "N"],
  ["CC(=O)c1cc(C(C)(C)C)cc2c1CCC2(C)C", "N"]
]}

[ask] Hi, do you know how C[C@H]1CCCC(=O)CCC/C=C/c2cc(O)cc(O)c2C(=O)O1 came out in this test?
[reply] Y

[ask] // next record Clc1ccc(C2(Cn3cncn3)CC(Br)CO2)c(Cl)c1 (stereo not given)
[reply] N

[ask] // next record O=[N+]([O-])c1ccc(O)c([N+](=O)[O-])c1
[reply] N

[ask] // next record CCC(C)(C)c1ccc(O)c(C(C)(C)CC)c1
[reply] Y

[ask] // next record O=C(NCO)NCO
[reply] N

----------
Assay: BSK_4H_Eotaxin3: BioMAP Diversity Plus: 4H Assay for Eotaxin 3 Biomarker Activity (AID 2283000)
Details: primary human endothelial cells (HUVEC); actives raise or lower the signal
Method: BSK_4H is a cell-based, multiplexed-readout assay that uses umbilical vein endothelium, a human vascular primary cell, with measurements taken at 24 hours after chemical dosing in a 96-well plate.BSK_4H_Eotaxin3 is an assay component measured in the BSK_4H assay. It measures Eotaxin-3 antibody related to regulation of gene expression using ELISA technology.Data from the assay component BSK_4H_Eotaxin3 was analyzed into 1 assay endpoint. […]
Calls of active or inactive are those of the source. How the source made its calls: active means hit-call score of the fitted dose curve at least 0.9, where 1 is the maximum; inactive means score below 0.9.
Permitted responses: yes = active, no = inactive

{"columns": ["compound", "labelClass"],
 "data": [
  ["C=C(C)C(=O)[O][Sn]([CH2]CCC)([CH2]CCC)[CH2]CCC", "yes"],
  ["COP(=S)(OC)Oc1ccc(Sc2ccc(OP(=S)(OC)OC)cc2)cc1", "yes"],
  ["O=C(O)C(Cl)(Cl)Cl", "no"],
  ["COC[C@H](C)N(C(=O)CCl)c1c(C)csc1C", "no"],
  ["CC(C)(OO)c1ccccc1", "no"],
  ["CC(=O)C(Cl)C(=O)N(C)C (stereo not drawn)", "yes"]
]}

Turning to the following compound.
[ask] Hi, do you know how O=S(=O)(c1ccc(Cl)cc1)c1ccc(Cl)cc1 came out in this test?
[reply] no

----------
read-out: Monocyte Chemoattractant Protein-1 (MCP1), CCL2 (gene 6347); assay: BSK_SAg_MCP1: BioMAP Diversity Plus: SAg Assay for Monocyte Chemoattractant Protein-1 (MCP1) Biomarker Activity (AID 2283090); details: primary human HUVEC with PBMC; actives raise or lower the signal
The source made the active and inactive calls. The calls were made as follows: active = hit-call score of the fitted dose curve at least 0.9, where 1 is the maximum; inactive = score below 0.9.
Permitted responses: 1 for active, 0 for inactive

Please review the entries below; each comes with its answer.
{"columns": ["compound", "labelClass"],
 "data": [
  ["O=C(O)CCC(F)(C(F)(F)F)C(F)(F)F", 0],
  ["CC(=O)OC(c1ccccc1)C(Cl)(Cl)Cl (centres undefined)", 0],
  ["NC(=S)Nc1ccccc1", 0],
  ["CCOP(=S)(OCC)SCCS(=O)(=O)CC", 0],
  ["CC(C)(C)CC(C)(C)c1ccc(O)cc1", 1],
  ["CC(C)(c1ccccc1)c1ccc(O)c(C(C)(C)c2ccccc2)c1", 1]
]}

[ask] Hi, do you know how BrCCBr came out in this test?
[reply] 0

[ask] // next record CN(C)N=O
[reply] 0

----------
assay: BSK_KF3CT_SRB: Viability Assessment in the BioMAP Diversity Plus: KF3CT Assay (AID 2283069); details: primary human keratinocytes with fibroblasts;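 also: total protein by sulforhodamine B staining as a cytotoxicity measure; read 24 h after compound addition; fitted for both signal gain and loss against DMSO baseline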
Activity calls are given as the source filed them. How the source made its calls: active means hit-call score of the fitted dose curve at least 0.9, where 1 is the maximum; inactive means score below 0.9.
Permitted responses: active, inactive

Please review the entries below; each comes with its answer.
{"columns": ["chemicalStructure", "labelClass"],
 "data": [
  ["Cc1ccccc1N", "inactive"],
  ["Oc1cccc2cccnc12", "active"],
  ["CCNc1nc(NC(C)(C)C)nc(SC)n1", "inactive"],
  ["CCCCCCCCc1ccc(O)cc1", "active"]
]}

[ask] Hi, do you know how Oc1ccc(-c2ccccc2)cc1 came out in this test?
[reply] inactive

[ask] // next record C(=NC1CCCCC1)=NC1CCCCC1
[reply] active

[ask] // next record COP(=S)(OC)Oc1c(Cl)cc(C)cc1Cl
[reply] inactive

[ask] // next record O=C(O)C(F)(F)C(F)(F)C(F)(F)C(F)(F)C(F)(F)C(F)(F)F
[reply] inactive

[ask] // next record O=C(OC1CCCCC1)c1ccccc1C(=O)OC1CCCCC1
[reply] inactive

----------
assay: ATG_E_Box_CIS: Attagene CIS-FACTORIAL HepG2 Assay for human Enhancer Box (E-box) (AID 2282936); details: HepG2 E-box cis-reporter transcription, actives raise or lower the signal
Active and inactive are the calls of the source. How the source made its calls: active means hit-call score of the fitted dose curve at least 0.9, where 1 is the maximum; inactive means score below 0.9.
Permitted responses: Y for active, N for inactive

Please review the entries below; each comes with its answer.
{"columns": ["molecule", "labelClass"],
 "data": [
  ["Nc1ccc(Cl)cc1C(=O)c1ccccc1", "N"],
  ["NC(=S)Nc1ccccc1", "N"],
  ["CC(=O)c1cc(C(C)(C)C)cc2c1CCC2(C)C", "N"]
]}

[ask] Hi, do you know how COc1cc(OC)nc(NC(=O)NS(=O)(=O)c2ncccc2C(=O)N(C)C)n1 came out in this test?
[reply] N

[ask] // next record O=C1CCCN1
[reply] N

[ask] // next record OCC(O)CCl (stereo not given)
[reply] N

[ask] // next record CCCCCCCCCl
[reply] N

----------
molecular target: Estrogen receptor (Homo sapiens); assay: OT_ER_ERaERa_0480: Odyssey Thera (OT) 8-hour HEK293T Protein-Complementation Assay for Estrogen Receptor-alpha/-alpha Homodimer (AID 2283351);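 also: rise in fluorescence from reassembled reporter fragments on ERα LBD homodimer in nucleus or whole cell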
Records with an inconclusive call do not appear. The source made the active and inactive calls. The calls were made as follows: active = hit-call score of the fitted dose curve at least 0.9, where 1 is the maximum; inconclusive = response in the unintended direction; inactive = score below 0.9.
Permitted responses: active, inactive

{"columns": ["molecule", "labelClass"],
 "data": [
  ["CC1(C)CCC(Cc2ccc(Cl)cc2)C1(O)Cn1cncn1 (centres undefined)", "inactive"]
]}

Turning to the following molecule.
[ask] Hi, do you know how O=C(OC1CCCCC1)c1ccccc1C(=O)OC1CCCCC1 came out in this test?
[reply] active
